Entry source: PubChem BioAssay AID1159580

Listed next: entries and their corresponding normalized growth.
Assay: chemical genetic growth profiling, strain panel (AID 1159580);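 also: tested at 20 µM; growth read once vehicle control cultures reached saturation at 30 °C; 1 = growth at the plate median or of vehicle wells; lower values mean less growth of the strain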
Settings: S. cerevisiae deletion strains, growth OD, locus YPR119W, strain clb2, active compounds read low
Among all 5,500 compounds or so, about 2,000 (36%) were called active. Not shown: some 18% with an inconclusive outcome. The list shows a part of the results.
In your answer, state the number alone without any accompanying words.

Inquiry: Which normalized growth value is on record for C/C=C(/C)C(=O)OC1CCC2(C)C3CCC4C5(O)CC(O)C6(O)C(CN7CC(C)CCC7C6(C)O)C5(O)CC42OC13O (stereo not drawn) ?
Reply text: 0.969

Inquiry: For COc1cc(C(=O)O[C@H]2CC[C@@]3(C)[C@@H]4CC[C@H]5[C@]6(O)C[C@H](O)[C@@]7(O)[C@@H](CN8C[C@@H](C)CC[C@H]8[C@@]7(C)O)[C@]6(O)C[C@@]53O[C@]24O)cc(OC)c1OC then?
Reply text: 0.979

Inquiry: For NNC(=O)c1ccncc1 then?
Reply text: 0.987

Turning now to a further molecule:
Inquiry: Which normalized growth value is on record for Cc1cn([C@H]2C[C@H](N=[N+]=[N-])[C@@H](CO)O2)c(=O)[nH]c1=O ?
Reply text: 1.01

* * *

Assay: chemical genetic growth profiling, strain panel (AID 1159580);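 also: tested at 20 µM; growth read once vehicle control cultures reached saturation at 30 °C; 1 = growth at the plate median or of vehicle wells; lower values mean less growth of the strain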
Conditions: S. cerevisiae deletion strains, growth OD, locus YDR159W, strain sac3, active compounds read low
About 2,000 (36%) of roughly 5,500 compounds were called active. Another 18% or so got no clear call; they are omitted. Some of the results follow.
Listed next: entries and their corresponding normalized growth.
In your answer, state the number alone without any accompanying words.

// below: answered molecules
Inquiry: Which normalized growth value is on record for COc1cc(C(=O)O[C@H]2CC[C@@]3(C)[C@@H]4CC[C@H]5[C@]6(O)C[C@H](O)[C@@]7(O)[C@@H](CN8C[C@@H](C)CC[C@H]8[C@@]7(C)O)[C@]6(O)C[C@@]53O[C@]24O)cc(OC)c1OC ?
Reply text: 0.972

Inquiry: For C[C@@H]1OC(O[C@H]2C(O[C@H]3CC[C@@]4(C)C(CC[C@]5(C)C4CC=C4C6CC(C)(C)CC[C@]6(C(=O)O)CC[C@]45C)[C@]3(C)CO)OC[C@H](O)[C@@H]2O)[C@H](O)[C@H](O)[C@H]1O (stereo not given in full) then?
Reply text: 0.0844

Inquiry: For CCC(C)C(=O)O[C@H]1[C@H](O)C2C(CN3CC(C)CCC3[C@@]2(C)O)C2C[C@]34O[C@]5(O)C(OC(=O)C(C)(O)CC)CC[C@@]3(C)C5C(OC(C)=O)[C@@H](OC(C)=O)C4[C@@]21O (stereo not given in full) then?
Reply text: 1.04

Inquiry: For COC(=O)C[C@H]1C(C)(C)C(=O)[C@@H]2CC3C4=CC(=O)O[C@@H](c5ccoc5)[C@]4(C)CCC3[C@@]1(C)C2=O (stereo not given in full) then?
Reply text: 0.97

Turning now to a further molecule:
Inquiry: Which normalized growth value is on record for CC(=O)O[C@@H]1CC[C@@]2(C)C(CC[C@]3(C)C2CC=C2C4CC(C)(C)CC[C@]4(C(=O)O)CC[C@]23C)C1(C)C (stereo not given in full) ?
Reply text: 1.03

* * *

Assay: chemical genetic growth profiling, strain panel (AID 1159580);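 also: tested at 20 µM; growth read once vehicle control cultures reached saturation at 30 °C; 1 = growth at the plate median or of vehicle wells; lower values mean less growth of the strain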
Conditions: S. cerevisiae deletion strains, growth OD, locus YMR307W, strain GAS1, active compounds read low
The campaign covered roughly 5,500 compounds. About 2,000 (36%) were called active. Not shown: some 18% with an inconclusive outcome. The list shows a part of the results.
MEASUREMENT_LABEL: normalized growth
In your answer, state the number alone without any accompanying words.

// below: answered molecules
Inquiry: Which normalized growth value is on record for Nc1c2c(nc3ccccc13)CCCC2 ?
Reply text: 0.999

Inquiry: For CC(C)=CCCC1(C)C=Cc2c(O)c3c(c(CC=C(C)C)c2O1)OC12C(=CC4CC1C(C)(C)OC2(C/C=C(/C)C(=O)O)C4O)C3=O (centres undefined) then?
Reply text: 1.03

Inquiry: For CC(C)=CCCC1(C)C=Cc2c(O)c3c(c(CC=C(C)C)c2O1)OC12C(CC4CC1C(C)(C)OC2(C/C=C(/C)C(=O)O)C4O)C3=O (centres undefined) then?
Reply text: 0.95

Turning now to a further molecule:
Inquiry: Which normalized growth value is on record for COC1=C[C@@H]2[C@@H]3Cc4ccc(OC)c(O)c4[C@]2(CCN3C)CC1=O ?
Reply text: 1.03
